Tested system: Aβ1-40 (Homo sapiens);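 note: Aβ nucleation assay tracking fiber polymerization from monomer by turbidity (light scattering), shaken continuously in 96-well plates, read every 15 min over 5 h, compared with compound-free control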
Sequence (P05067 672-711): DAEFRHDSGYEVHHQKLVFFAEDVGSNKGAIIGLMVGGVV
Method summary: biochemical
Condition label: read-out: % Inucl'n (percent reduction in maximum turbidity)
Square brackets hold non-standard residues; d marks the D form. Peptide text beside a SMILES is read from it. * marks the point of attachment. Cholyl = C[C@H](CCC(=O)*)[C@H]1CC[C@H]2[C@@H]3[C@H](O)C[C@@H]4C[C@H](O)CC[C@]4(C)[C@H]3C[C@H](O)[C@]12C; βAla = NCCC(=O)O
Please respond with reported inhibition at 100 % for every item in the list.
Express the result in % but write the number alone.

Query: inhibition at 100 % lookup needed for CC(C)C[C@H](NC(=O)[C@H](CCCCN)NC(=O)CC[C@@H](C)[C@H]1CC[C@H]2[C@@H]3[C@H](O)C[C@@H]4C[C@H](O)CC[C@]4(C)[C@H]3C[C@H](O)[C@]12C)C(=O)N[C@H](C(=O)N[C@@H](Cc1ccccc1)C(=O)N[C@@H](Cc1ccccc1)C(N)=O)C(C)C [PPI-319, cholyl-Aβ16-20-amide] , thanks.
Reply: 70

Query: And for CC(C)C[C@H](NC(=O)CC[C@@H](C)[C@H]1CC[C@H]2[C@@H]3[C@H](O)C[C@@H]4C[C@H](O)CC[C@]4(C)[C@H]3C[C@H](O)[C@]12C)C(=O)N[C@H](C(=O)N[C@@H](Cc1ccccc1)C(=O)N[C@@H](Cc1ccccc1)C(=O)N[C@H](C)C(=O)O)C(C)C [PPI-381] ?
Reply: 56

Query: Another compound to look at: CC(C)C[C@H](NC(=O)[C@H](CCCCN)NC(=O)CC[C@@H](C)[C@H]1CC[C@H]2[C@@H]3[C@H](O)C[C@@H]4C[C@H](O)CC[C@]4(C)[C@H]3C[C@H](O)[C@]12C)C(=O)N[C@H](C(=O)N[C@@H](Cc1ccccc1)C(=O)N[C@@H](Cc1ccccc1)C(=O)NCCC(=O)O)C(C)C [PPI-371] (Cholyl-KLVFF[βAla]-OH)
Reply: 76

Query: Similarly, C[C@H](CCC(=O)O)[C@H]1CC[C@H]2[C@@H]3[C@H](O)C[C@@H]4C[C@H](O)CC[C@]4(C)[C@H]3C[C@H](O)[C@]12C [PPI-293, Cholic acid, reference compound] ?
Reply: 0
